Biological target: His tagged PTPN2 (TC45) protein (Homo sapiens)
Sequence (P17706 with tags, fused parts or gaps isoform P17706-2): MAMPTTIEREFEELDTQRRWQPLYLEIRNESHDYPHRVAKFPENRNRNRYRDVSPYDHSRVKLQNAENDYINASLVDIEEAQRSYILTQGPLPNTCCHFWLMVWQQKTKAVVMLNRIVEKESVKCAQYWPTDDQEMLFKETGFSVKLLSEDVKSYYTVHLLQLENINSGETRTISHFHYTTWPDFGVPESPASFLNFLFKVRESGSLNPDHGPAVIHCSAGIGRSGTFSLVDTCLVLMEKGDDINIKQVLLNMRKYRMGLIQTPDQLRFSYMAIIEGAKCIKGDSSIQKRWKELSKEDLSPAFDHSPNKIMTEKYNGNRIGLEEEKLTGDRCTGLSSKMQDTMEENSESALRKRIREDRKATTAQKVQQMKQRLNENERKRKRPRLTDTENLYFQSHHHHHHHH
measure: IC50

# example entries with known answers
molecule	IC50
CC(C)(O)CCOC1CCc2c(cc(O)c(N3CC(=O)NS3(=O)=O)c2F)C1 (stereo not shown)	10 to 100 nM
O=C1CN(c2c(O)cc3c(c2F)CN(CCC2CC4CCC2O4)CC3)S(=O)(=O)N1 (stereo not shown)	1 to 10 nM
O=C1CN(c2c(O)cc3c(c2F)C[C@@H](NCCC(F)F)CC3)S(=O)(=O)N1 (single isomer, unassigned)	10 to 100 nM
CCCC1(N)CCc2cc(O)c(N3CC(=O)NS3(=O)=O)c(F)c2C1 (stereo not shown)	> 100 nM
O=C1CN(c2c(O)cc3c(c2F)C[C@@H]([C@H]2CCNC2)CC3)S(=O)(=O)N1 (single isomer, unassigned)	10 to 100 nM

Give IC50 for each of the items listed below.
1. Cc1noc(C)c1CCNC1CCc2cc(O)c(N3CC(=O)NS3(=O)=O)c(F)c2C1 (stereo not shown)
2. O=C1CN(c2c(O)cc3c(c2F)CC(C2CCN(CC4CC4)C2)CC3)S(=O)(=O)N1 (mixture of isomers)

Response:
1 to 10 nM
10 to 100 nM

---

Target: His tagged PTPN2 (TC45) protein (Homo sapiens)
Sequence (P17706 with tags, fused parts or gaps isoform P17706-2): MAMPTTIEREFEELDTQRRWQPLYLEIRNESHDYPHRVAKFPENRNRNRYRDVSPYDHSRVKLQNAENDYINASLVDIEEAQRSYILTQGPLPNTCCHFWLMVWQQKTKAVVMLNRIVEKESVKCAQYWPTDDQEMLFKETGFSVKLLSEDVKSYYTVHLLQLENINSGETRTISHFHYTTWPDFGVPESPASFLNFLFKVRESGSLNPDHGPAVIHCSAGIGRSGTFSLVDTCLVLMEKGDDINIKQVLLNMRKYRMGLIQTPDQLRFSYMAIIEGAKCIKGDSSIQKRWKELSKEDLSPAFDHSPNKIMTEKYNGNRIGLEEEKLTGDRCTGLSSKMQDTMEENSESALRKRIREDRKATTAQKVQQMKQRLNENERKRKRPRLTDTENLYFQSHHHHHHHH
Give IC50 for every item shown.

molecule	IC50
O=C1CN(c2c(O)cc3c(c2F)CC(NCC[C@H]2C[C@@H](OC(F)(F)F)C2)CC3)S(=O)(=O)N1 (some centres unmarked)	10 to 100 nM

Give IC50 for each of the items listed below.
1. O=C1CN(c2c(O)cc3c(c2F)CC(NCC(O)C2CC2)CC3)S(=O)(=O)N1 (centres unmarked)
2. CCCC1(NNC(=O)c2ccccc2)CCc2cc(O)c(N3CC(=O)NS3(=O)=O)c(F)c2C1 (centres unmarked)

Response:
1. 10 to 100 nM
2. 10 to 100 nM

Give IC50 for each of the items listed below.
1. CCC(C)CCN[C@@H]1CCc2cc(O)c(N3CC(=O)NS3(=O)=O)c(F)c2C1 (some centres unmarked)
2. CC(C)CCN[C@@H]1CCc2cc(O)c(N3CC(=O)NS3(=O)=O)c(F)c2C1 (single isomer, unassigned)
3. COCC(C)(C)CCNC1CCc2cc(O)c(N3CC(=O)NS3(=O)=O)c(F)c2C1 (centres unmarked)
4. CC(C)(CCN[C@H]1CCc2cc(O)c(N3CC(=O)NS3(=O)=O)c(F)c2C1)C(F)(F)F (single isomer, unassigned)

Response:
1. < 1 nM
2. 1 to 10 nM
3. 1 to 10 nM
4. 10 to 100 nM

Give IC50 for each of the items listed below.
1. CC(C)(C)OC(=O)NCCOC1CCc2c(cc(O)c(N3CC(=O)NS3(=O)=O)c2F)C1 (centres unmarked)
2. CCCCNC1CCc2cc(O)c(N3CC(=O)NS3(=O)=O)c(F)c2C1 (centres unmarked)
3. O=C1CN(c2c(O)cc3c(c2F)CC(NCCOC(F)F)CC3)S(=O)(=O)N1 (centres unmarked)
4. CC(C)(CCN[C@@H]1CCc2cc(O)c(N3CC(=O)NS3(=O)=O)c(F)c2C1)C(F)(F)F (single isomer, unassigned)
5. O=C1CN(c2c(O)cc3c(c2F)CC(NCC2CC2)CC3)S(=O)(=O)N1 (centres unmarked)
6. CC(C)C1CCN(C2CCc3cc(O)c(N4CC(=O)NS4(=O)=O)c(F)c3C2)C1 (centres unmarked)
7. O=C1CN(c2c(O)cc3c(c2F)CC(NCCC(F)(F)F)CC3)S(=O)(=O)N1 (centres unmarked)

Response:
["10 to 100 nM", "1 to 10 nM", "1 to 10 nM", "< 1 nM", "10 to 100 nM", "10 to 100 nM", "10 to 100 nM"]

Give IC50 for each of the items listed below.
1. CC(C)CCNC1CCc2c(cc(O)c(N3CC(=O)NS3(=O)=O)c2F)C1 (centres unmarked)
2. O=C1CN(c2c(O)cc3c(c2F)CC(OCCCC(F)(F)F)CC3)S(=O)(=O)N1 (centres unmarked)

Response:
["1 to 10 nM", "1 to 10 nM"]

Give IC50 for each of the items listed below.
1. CC(C)(CCNC1CCc2cc(O)c(N3CC(=O)NS3(=O)=O)c(F)c2C1)C(F)(F)F (centres unmarked)
2. O=C1CN(c2c(O)cc3c(c2F)CC(NCCC(O)C(F)(F)F)CC3)S(=O)(=O)N1 (centres unmarked)
3. CC(O)CCOC(=O)N1Cc2c(cc(O)c(N3CC(=O)NS3(=O)=O)c2F)C(F)(F)C1 (centres unmarked)
4. O=C1CN(c2c(O)cc3c(c2F)CC(NCCOC(F)(F)F)CC3)S(=O)(=O)N1 (centres unmarked)
5. O=C1CN(c2c(O)cc3c(c2F)CC(NCCC2CCCCC2)CC3)S(=O)(=O)N1 (centres unmarked)

Response:
1 to 10 nM
1 to 10 nM
> 100 nM
10 to 100 nM
1 to 10 nM

Give IC50 for each of the items listed below.
1. O=C1CN(c2c(O)cc3c(c2F)C[C@@H](NCCC2CC2)CC3)S(=O)(=O)N1 (single isomer, unassigned)
2. O=C1CN(c2c(O)cc3c(c2F)CC(N[C@H]2C[C@@H](OC(F)(F)F)C2)CC3)S(=O)(=O)N1 (some centres unmarked)
3. CC(F)(F)CNC1CCc2cc(O)c(N3CC(=O)NS3(=O)=O)c(F)c2C1 (centres unmarked)

Response:
1. 10 to 100 nM
2. 10 to 100 nM
3. 10 to 100 nM

Give IC50 for each of the items listed below.
1. O=C1CN(c2c(O)cc3c(c2F)CN(C(=O)NCC2CCOC2)CC3)S(=O)(=O)N1 (centres unmarked)
2. O=C1CN(c2c(O)cc3c(c2F)CCC(NCCCC(F)F)C3)S(=O)(=O)N1 (centres unmarked)
3. CC(C)(O)CCNC1CCc2cc(O)c(N3CC(=O)NS3(=O)=O)c(F)c2C1 (centres unmarked)
4. CC(C)CCOC1CCc2c(cc(O)c(N3CC(=O)NS3(=O)=O)c2F)C1 (centres unmarked)
5. COC1CCc2c(cc(O)c(N3CC(=O)NS3(=O)=O)c2F)C1 (centres unmarked)
6. O=C1CN(c2c(O)cc3c(c2F)CCC(NCC2CC2)C3)S(=O)(=O)N1 (centres unmarked)
7. COCCOC1CCc2cc(O)c(N3CC(=O)NS3(=O)=O)c(F)c2C1 (centres unmarked)

Response:
1: 10 to 100 nM; 2: 1 to 10 nM; 3: 1 to 10 nM; 4: 10 to 100 nM; 5: 10 to 100 nM; 6: 1 to 10 nM; 7: 10 to 100 nM

Prompt: Form field: IC50 recorded for CC(C)(O)CCNC1CCc2c(cc(O)c(N3CC(=O)NS3(=O)=O)c2F)C1 (centres unmarked) with His tagged PTPN2 (TC45) protein (Homo sapiens) (enter value)
Response: 1 to 10 nM

Reference source: patent US10851073B2
